These data points were gathered from ChEMBL document CHEMBL1201862.

Reported values: AC50 for Cytochrome P450 2C9 (Homo sapiens), one per item.

Reference set, count: 5
# compound, AC50
records = [
    ("CCCC(=O)N1CCN(c2ccc(NC(=O)c3sc4ccccc4c3Cl)cc2)CC1", "5.01 µM (inconclusive)"),
    ("Oc1c2c(nc3c(-c4ccccc4)cnn13)CCC2", "22.4 µM (inconclusive)"),
    ("N=C1[C@@H](O)[C@]2(I)c3ccccc3N3C(=N)[C@H](O)[C@@H]4c5ccccc5N1[C@@H]4[C@@H]32", "7.94 µM (inconclusive)"),
    ("COc1ccccc1/C=C/C(=O)c1ccc(Cl)cc1", "22.4 µM (inconclusive)"),
    ("Cc1ccc(/N=N\\c2c(O)ccc3cc(S(=O)(=O)O)ccc23)cc1", "3.16 µM (inconclusive)"),
]

Could you tell me AC50 for each of these molecules? They are listed below.
1. O=C(c1ccncc1)N1CCC[C@@]2(CCN(c3ncccn3)C2)C1
2. O=C(OC1CCN(c2ncc(C(F)(F)F)cc2Cl)CC1)c1cccc(C(F)(F)F)c1
3. CCCOC(=O)c1c(-c2ccccc2)nc(CC)c(C(=O)SCC)c1CCC
4. COc1ccc(NC(C)=O)cc1NC(=O)CN1CCN(CC(=O)Nc2ccccc2Cl)CC1
5. Clc1cccc(Oc2cnc3ccccc3n2)c1
6. COc1cc(=O)n2c(n1)SCCC2

result:
20 µM (inconclusive)
0.2 µM (inconclusive)
7.94 µM (inconclusive)
20 µM (inconclusive)
14.1 µM (inconclusive)
31.6 µM (inconclusive)

====

Reported values: AC50 for Cytochrome P450 2D6 (Homo sapiens, UniProt P10635), one per item.

Reference set, count: 6
# compound, AC50
measured = [
    ("O=C(c1csnn1)N1CCC2(CC1)CN(c1ccccc1)C2", "15.8 µM (inconclusive)"),
    ("CN(C)c1ncc2nc(-c3ccc(F)cc3)c(=O)n(C[C@H]3CCCO3)c2n1", "1.26 µM (inconclusive)"),
    ("Cc1ccc(C(=O)/C=C/c2c[nH]c3ccccc23)cc1", "22.4 µM (inconclusive)"),
    ("C=CC[C@@H]1C=C[C@H](O/N=C(\\C)CCN2CCCc3nc(C)c(C)cc32)[C@H](CO)O1", "3.16 µM (inconclusive)"),
    ("O=[N+]([O-])c1cccc2c(Br)n[nH]c12", "0.251 µM (inconclusive)"),
    ("O=S(=O)(NCc1cc(-c2ccccc2Cl)no1)c1ccccc1", "39.8 µM (inconclusive)"),
]

Could you tell me AC50 for each of these compounds? They are listed below.
1. COc1ccccc1CNc1ccnc(-c2c(C)noc2C)n1
2. Cc1ccccc1-c1nc(N2CCNCC2)c2ccccc2n1
3. N=C1[C@@H](O)[C@]2(I)c3ccccc3N3C(=N)[C@H](O)[C@@H]4c5ccccc5N1[C@@H]4[C@@H]32
4. CN(C)C(=O)c1ccc(-c2nccc(N(C)Cc3ccco3)n2)cc1
5. COc1cccc(Cn2c(=O)c(CCc3ccccc3)nc3cnc(N4CCN(C)CC4)nc32)c1

result:
["20 µM (inconclusive)", "20 µM (inconclusive)", "6.31 µM (inconclusive)", "25.1 µM (inconclusive)", "20 µM (inconclusive)"]

====

Could you please report measured EC50 for the items listed next?
test-target: Zinc finger protein mex-5 (Caenorhabditis elegans, UniProt Q9XUB2)
Sequence (Q9XUB2 whole entry): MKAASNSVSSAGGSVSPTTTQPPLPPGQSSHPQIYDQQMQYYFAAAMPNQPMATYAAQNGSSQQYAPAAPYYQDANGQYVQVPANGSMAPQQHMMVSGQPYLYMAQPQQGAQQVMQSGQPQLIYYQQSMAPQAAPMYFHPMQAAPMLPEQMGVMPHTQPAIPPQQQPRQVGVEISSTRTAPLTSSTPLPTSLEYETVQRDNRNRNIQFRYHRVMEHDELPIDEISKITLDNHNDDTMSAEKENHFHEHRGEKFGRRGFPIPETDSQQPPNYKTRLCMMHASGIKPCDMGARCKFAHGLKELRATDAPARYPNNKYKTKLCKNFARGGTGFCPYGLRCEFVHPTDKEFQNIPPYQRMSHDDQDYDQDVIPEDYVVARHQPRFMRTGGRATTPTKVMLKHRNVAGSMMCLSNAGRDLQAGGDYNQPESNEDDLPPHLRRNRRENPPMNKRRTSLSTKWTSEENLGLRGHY
assay-notes: MEX-5/TCR-2 RNA interaction inhibitors, dose response, biochemical, C. elegans, fluorescence polarization (AID 1960)
Activity calls are given as the source filed them.

Reference set, count: 9
# compound, observed-measurement
measured = [
    ("CCC(=O)OC1(C)C(=O)C=C2C=C(CCCC(=O)OC)OC=C2C1=O (stereo not given)", "22.8 µM (active)"),
    ("Cc1ccc(S(=O)(=O)N2CCOCC2)cc1C(=O)Nc1ccc(S(=O)(=O)Nc2nccs2)cc1", "> 300 µM (not active)"),
    ("CCn1c(C)cc(/C=C2\\C(=O)NC(=O)N(c3ccccc3C)C2=O)c1C", "> 300 µM (not active)"),
    ("CCC(=O)OC1(C)C(=O)C=C2C=C(CCCCNC(=O)OC(C)(C)C)OC=C2C1=O (stereo not given)", "28.4 µM (active)"),
    ("O=[N+]([O-])c1ccc(Nc2ccccc2O)c2nonc12", "28.2 µM (active)"),
    ("C=CCOc1ccc(C2C(C(=O)c3ccco3)=C(O)C(=O)N2c2nnc(C)s2)cc1 (stereo not given)", "> 300 µM (not active)"),
    ("Cc1ccc(S(=O)(=O)C(C#N)c2nc3ccccc3nc2N2CCC(C)CC2)cc1 (stereo not given)", "24.6 µM (active)"),
    ("COC(=O)c1ccccc1-n1c(CCC(=O)O)ccc1-c1ccccc1", "> 300 µM (not active)"),
    ("O=C1c2ccccc2C(=O)N1CCCc1nc(-c2ccncc2)no1", "> 300 µM (not active)"),
]

Moving on to another compound below.
query: Indicate the recorded EC50 value for this compound: COc1ccc(C2C=C(c3ccc(Br)s3)Nc3ncnn32)cc1OC (stereo not given)
result: 6.36 µM (inconclusive)

====

Could you please report measured AC50 for the items listed next?
test-target: Cytochrome P450 1A2 (Homo sapiens, UniProt P05177);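 note: PubChem cytochrome P450 panel assay, CYP1A2 panel member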
Sequence (P05177 whole entry): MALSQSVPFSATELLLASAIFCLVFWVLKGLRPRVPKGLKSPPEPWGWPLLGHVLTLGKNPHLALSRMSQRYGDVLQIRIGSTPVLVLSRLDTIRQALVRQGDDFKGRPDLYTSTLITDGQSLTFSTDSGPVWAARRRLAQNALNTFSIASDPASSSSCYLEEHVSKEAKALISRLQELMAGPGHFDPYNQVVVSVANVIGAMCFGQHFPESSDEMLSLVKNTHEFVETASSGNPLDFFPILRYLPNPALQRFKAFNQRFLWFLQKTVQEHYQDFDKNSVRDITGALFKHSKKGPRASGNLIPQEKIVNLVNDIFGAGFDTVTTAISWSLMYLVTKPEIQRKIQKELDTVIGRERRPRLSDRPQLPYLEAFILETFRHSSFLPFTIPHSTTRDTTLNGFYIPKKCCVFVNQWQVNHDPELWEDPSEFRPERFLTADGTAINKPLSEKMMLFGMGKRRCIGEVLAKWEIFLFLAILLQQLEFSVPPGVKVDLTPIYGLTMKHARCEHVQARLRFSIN

Could you tell me AC50 for each of these molecules? They are listed below.
1. COCCNc1ccnc(-c2ccccc2C(F)(F)F)n1
2. CCOC(=O)Nc1ccc(C(=O)NCC2CCCO2)cc1 (stereo not drawn)
3. Cc1cc(/C=N\NC(=O)c2cccs2)c(C)n1-c1ccc2ncccc2c1
4. CN1CCN(c2ncc3nc(-c4ccc(Cl)cc4)c(=O)n(CCC#N)c3n2)CC1
5. Cc1nn(C(C)C(=O)Nc2ccc(Cl)cn2)c(C)c1[N+](=O)[O-] (stereo not drawn)
6. N#Cc1ccc(CN2CC[C@@]3(CCCN(C(=O)Oc4ccccc4)C3)C2)cc1
7. C[C@@H](CC(=O)O)[C@@H](N)C(=O)O
8. CCOC(=O)c1c(C)c(C(=O)N2CCN(C(=O)c3ccco3)CC2)c(C)n1C

result:
1. 20 µM (inconclusive)
2. 39.8 µM (inconclusive)
3. 39.8 µM (inconclusive)
4. 15.8 µM (inconclusive)
5. 12.6 µM (inconclusive)
6. 12.6 µM (inconclusive)
7. 31.6 µM (inconclusive)
8. 39.8 µM (inconclusive)

====

test-target: Aminopeptidase N (Plasmodium falciparum FcB1/Columbia, UniProt O96935)
Sequence (O96935 whole entry): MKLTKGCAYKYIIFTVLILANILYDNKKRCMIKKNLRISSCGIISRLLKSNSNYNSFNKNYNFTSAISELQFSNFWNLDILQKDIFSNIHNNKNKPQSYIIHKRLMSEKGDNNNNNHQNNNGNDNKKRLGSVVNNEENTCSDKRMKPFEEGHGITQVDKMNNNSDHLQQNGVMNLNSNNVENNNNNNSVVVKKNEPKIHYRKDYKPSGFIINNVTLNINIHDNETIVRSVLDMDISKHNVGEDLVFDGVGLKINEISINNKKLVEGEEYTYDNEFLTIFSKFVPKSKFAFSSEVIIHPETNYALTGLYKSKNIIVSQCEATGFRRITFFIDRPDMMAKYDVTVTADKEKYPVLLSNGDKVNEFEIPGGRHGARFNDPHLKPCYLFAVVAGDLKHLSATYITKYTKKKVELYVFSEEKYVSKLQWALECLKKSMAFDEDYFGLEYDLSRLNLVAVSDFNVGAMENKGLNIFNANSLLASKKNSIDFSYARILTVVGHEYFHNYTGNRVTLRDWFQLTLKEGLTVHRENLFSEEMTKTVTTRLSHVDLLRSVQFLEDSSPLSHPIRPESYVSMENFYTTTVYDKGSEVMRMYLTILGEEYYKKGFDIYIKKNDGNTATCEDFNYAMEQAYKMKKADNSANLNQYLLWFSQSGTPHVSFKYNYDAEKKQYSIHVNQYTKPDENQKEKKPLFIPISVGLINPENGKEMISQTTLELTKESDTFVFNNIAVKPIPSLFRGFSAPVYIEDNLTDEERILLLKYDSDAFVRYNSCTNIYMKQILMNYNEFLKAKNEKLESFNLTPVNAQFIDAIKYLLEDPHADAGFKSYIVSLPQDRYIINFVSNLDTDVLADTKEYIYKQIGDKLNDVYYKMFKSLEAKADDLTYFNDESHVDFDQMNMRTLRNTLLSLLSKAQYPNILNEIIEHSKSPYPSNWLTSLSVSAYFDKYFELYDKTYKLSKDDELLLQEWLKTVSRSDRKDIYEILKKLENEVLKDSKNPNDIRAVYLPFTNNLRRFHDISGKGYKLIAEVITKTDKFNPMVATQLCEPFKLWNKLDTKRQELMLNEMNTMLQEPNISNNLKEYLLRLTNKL
assay-notes: P. falciparum M1AAP inhibitors, biochemical, fluorogenic H-Leu-NHMec substrate, 1536-well (AID 1445)
Set-up: species or system Plasmodium falciparum 3D7, 3D7
The source made the active and inactive calls.
observation-type: IC50

# compound, test-target, observed-measurement
records = [
    ("O=C(O)CSc1cc(C(=O)c2ccccc2O)cn2c(=O)c3c4c(sc3nc12)CCCC4", "Aminopeptidase N (Plasmodium falciparum FcB1/Columbia, UniProt O96935)", "19.5 µM (active)"),
    ("O=C(O)c1ccc(-n2cccc2/C=N\\NC(=O)c2cc3cc(Br)ccc3o2)cc1", "Aminopeptidase N (Plasmodium falciparum FcB1/Columbia, UniProt O96935)", "37.1 µM (active)"),
]

Could you tell me IC50 for each of these compounds? They are listed below.
1. CCC(C)(C)NC(=O)CN(Cc1ccc2c(c1)OCO2)C(=O)CCC(=O)Nc1nccs1
2. O=C(CN1C(=O)C2CCCCN2C(=O)c2ccccc21)N1CCCc2ccccc21 (stereo not given)
3. CCc1cc2cc3c(cc2nc1SCC(=O)Nc1cc(OC)c(OC)cc1C(=O)O)OCO3

result:
1: 87.6 µM (active); 2: 103 µM (active); 3: 76 µM (active)
